System: OVCAR-8
test: NCI tumour cell line growth inhibition, 48 h
The whole screen tested about 58,000 sequences, of which about 3,600 (6.2%) were called active. A selection follows. Measured potencies and affinities stand elsewhere.
observable: log10(GI50) (log10 of the value in µM)
Short version: log10 scale, GI50, µM.

Please review the entries below; each comes with its answer.
mu-(1,7-nanodiamine-N,N')bis-(cis-aminedichloroplatimum (II)), CHEMBL2146215
1.72
[Bis(aminomethyl)tetramethylenesilane]dichloropaltinum(II), CHEMBL2146205
1.23
cis-Bis[[(trimethylsilyl)methyl]amino]tetrachloroplatinum(IV), CHEMBL2146191
0.39
CISPLATIN, CHEMBL11359
0.66

Attention now shifts to the item below.
Could you tell me which log10(GI50) is on file for [Bis(aminomethyl)pentamethylenesilane]tetrachloropaltinum(IV), CHEMBL2146204 ?
0.34

meta.source: ChEMBL document CHEMBL1201862
